System: CHO
Test: Cytotoxicity against CHO cells transfected with CYP1A1 assessed as growth inhibition after 96 hrs by MTT assay
Format: functional, cell-based
Conditions: Cricetulus griseus
REPORTED PROPERTY: pIC50
Recall that pIC50 is obtained by taking minus log10 of the concentration measured in molar.

COMPOUND: COc1ccc2c(OC)ccc(C(=O)O[C@H](C(N)=O)C3(C)CO3)c2c1 (stereo not given in full)
pIC50: 5.52

COMPOUND: Cc1ccc(C(=O)O[C@H](C(N)=O)C2(C)CO2)c2ccccc12 (stereo not given in full)
pIC50: 5.52

Please find the next compound below.
Qu. Name the recorded pIC50 for CC1([C@H](OC(=O)c2cccc3ccccc23)C(N)=O)CO1 (stereo not given in full) .
Ans. 5.30
